Quick reference: EC50 of the listed items.
- test_target: hMC5-R (Homo sapiens, UniProt P33032)
- Construct: expressed in transfected cells; host or cells: CHO-K1
- Sequence (P33032 whole entry): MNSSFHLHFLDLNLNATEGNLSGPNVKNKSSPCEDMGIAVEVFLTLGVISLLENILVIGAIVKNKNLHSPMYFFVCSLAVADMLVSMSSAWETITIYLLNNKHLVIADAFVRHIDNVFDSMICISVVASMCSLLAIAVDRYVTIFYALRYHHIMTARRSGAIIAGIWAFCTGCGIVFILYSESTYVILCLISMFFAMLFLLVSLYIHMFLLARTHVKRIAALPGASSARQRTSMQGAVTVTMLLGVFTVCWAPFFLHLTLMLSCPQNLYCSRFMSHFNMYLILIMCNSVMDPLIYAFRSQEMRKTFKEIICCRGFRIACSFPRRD
- protocol_details: cyclic AMP bioassay (ECL) in CHO-K1 cells
- Type: cell-based
- run_conditions: Table 9A/9B; read-out: EC50 hMC5-R
Bridge positions count the residues as written; N and C are the ends. Square brackets hold non-standard residues; d marks the D form. Peptide text beside a SMILES is read from it. Bip = N[C@@H](Cc1ccc(-c2ccccc2)cc1)C(=O)O; hArg = N=C(N)NCCCC[C@H](N)C(=O)O; βAla = NCCC(=O)O
# unit: nM | format: bare number

compound	unit_descriptor	EC50
CC(=O)N[C@@H](CC1CCCCC1)C(=O)N[C@H]1CC(=O)NCCCC[C@@H](C(N)=O)NC(=O)CCCNC(=O)[C@H](Cc2c[nH]c3ccccc23)NC(=O)[C@H](CCCNC(=N)N)NC(=O)[C@@H](Cc2ccccc2)NC(=O)[C@H](Cc2c[nH]cn2)NC1=O	nM	30.2

Request: Form field: reported EC50 of CCOc1ccc(C[C@H]2NC(=O)[C@H](Cc3c[nH]cn3)NC(=O)[C@@H](NC(=O)[C@H](N)Cc3ccccc3)CSSC[C@H](C(=O)N[C@H](C(N)=O)[C@@H](C)O)NC(=O)CCNC(=O)[C@H](Cc3ccc(-c4ccccc4)cc3)NC(=O)[C@H](CCCCNC(=N)N)NC2=O)cc1 (H-[dF]CH[dY](Et)[hArg][Bip][βAla][dC]T-NH2; disulfide 2-8)
Result: 31.8
